Values were extracted from patent US7985836B2.

Field: CC50 at 68 h. Provide a value for each of the substances that follow.
Test: Cytotoxicity MTT assay, HBMEC
Format: cell-based
Conditions: normal human cells, peptide concentration that kills 50% of the cells, 68 hours of exposure, read-out: HBMEC LC50
Ends that are not written are not given here.
Unit µM implied. Number only.

Task: Input IGKEFKRIVQRIKDFLRNLVPRTES [LL-37(13-37)] , output reported CC50 at 68 h.
Result: 38

Task: For the substance FKRIVQRIKDFLRNLV-NH2 [LL-37(17-32), FKRIVQRIKDFLRNLV] , give its measured CC50 at 68 h value.
Result: 25

Task: Respond only with CC50 at 68 h recorded for FKRIVQRIKDFLR-NH2 [LL-37(17-29), FKRIVQRIKDFLR]
Result: 55

---

Experiment: Analytical reversed-phase HPLC retention time as a measure of hydrophobicity
Assay type: physicochemical
Settings: Table 4; Vydac C18, acetonitrile 5% to 95%, 1 ml/min
Ends that are not written are not given here.
Please provide measured tRP, retention time on a reverse-phase column of HPLC as a measure of hydrophobicity for the entries that follow.
// return the numeric value with its unit appended

Task: Note down tRP, retention time on a reverse-phase column of HPLC as a measure of hydrophobicity recorded for GLFDKLKSLVSDDKK [anchor, bacterial membrane anchor of glucose-specific enzyme IIA of E. coli, reference compound]
Result: 29.5 min

Task: Give me measured tRP, retention time on a reverse-phase column of HPLC as a measure of hydrophobicity, please, for this substance: RLFDKIRQVIRKF-NH2 (C-terminus assumed) [LLAA, RLFDKIRQVIRKF]
Result: 30.8 min

Task: Note tRP, retention time on a reverse-phase column of HPLC as a measure of hydrophobicity for the substance shown: GLFDIIKKIAESF [aurein 1.2, antimicrobial and anticancer peptide isolated from the Australian Bell Frog, reference compound]
Result: 43.0 min

Task: For the substance GLFDIIKKIAESW-NH2 (C-terminus assumed) [F13W-aurein 1.2, GLFDIIKKIAESW] , give its reported tRP, retention time on a reverse-phase column of HPLC as a measure of hydrophobicity.
Result: 40.5 min
